Test: Cytotoxic concentration against HCV replication in AVA5 cell culture
Type: cell-based
Conditions: AVA5 cells
Some compounds, each annotated with its measured CC50.

{"compound": "Nc1ncnc2c1ncn2[C@@H]1C=C(CCO)[C@@H](O)[C@H]1O", "outcome-measure": "CC50", "result-value": "216 µM"}

Now look at this one.
So, NC(=O)c1ncn([C@@H]2O[C@H](CO)[C@@H](O)[C@H]2O)n1 [RIBAVIRIN] ? Its CC50 was 71 µM

* * *

Assay: Cytotoxic concentration against HBV replication in 2.2.15 cell culture
Type: cell-based, HepG2 2.2.15
Conditions: hepatitis b virus, 2.2.15 cells
outcome-measure: CC50 (µM)
Supply the numeric figure in µM, leaving out any unit text.

So, Nc1ccn([C@@H]2CS[C@H](CO)O2)c(=O)n1 (single isomer, unassigned) [LAMIVUDINE] ? Its CC50 was 2680
